Source: PubChem BioAssay AID1159580

- protocol-summary: chemical genetic growth profiling, strain panel (AID 1159580);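 also: tested at 20 µM; growth read once vehicle control cultures reached saturation at 30 °C; 1 = growth at the plate median or of vehicle wells; lower values mean less growth of the strain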
- condition-info: S. cerevisiae deletion strains, growth OD, locus YML070W, strain DAK1
Hit rate of the full screen: of about 5,500 compounds, about 2,000 (36%) were called active. About 18% were inconclusive and are not listed. Rule as the data show it: active = normalized growth mostly below about 0.91 (no sharp cut-off); inconclusive = no clear call, values can overlap the other calls; inactive = mostly above about 0.92. This is one part of the list.
Give one outcome, nothing more. List: active, inactive

# lookup: test call for `CC(C)(CCC(C)(C)N1C(=O)c2cccc3cccc(c23)C1=O)N1C(=O)c2cccc3cccc(c23)C1=O`
active

Hi, sorry to bother you, what did the test record for `O=[N+]([O-])c1ccc(Sc2ssc(=S)c2-c2ccccc2)nc1` ?
active

Called result for `CC(=O)Nc1ccc(S(=O)(=O)Nc2ccccc2Oc2ccc(Cl)cc2Cl)cc1`
inactive

I would be grateful if you could indicate the recorded call for `Cc1onc(-c2c(Cl)cccc2Cl)c1C(=O)NNc1c(Cl)cccc1Cl` .
inactive

Record lookup: outcome of this test for `Cc1nc(-c2ccc(S(=O)(=O)Nc3ccc(Br)cc3Cl)s2)cs1` ?
inactive

Could you check what this test reported for `Cc1ccc(NS(=O)(=O)c2ccc(-c3csc(C)n3)s2)c(C)c1` ?
inactive

Which outcome was entered for the compound `Cc1onc(-c2c(F)cccc2Cl)c1C(=O)ON=C1C2CC3CC(C2)CC1C3` in this test?
inactive

Status in this test for `Cc1cccc(NC(=S)NNC(=O)CSCc2cccc3ccccc23)c1` ?
inactive

Status in this test for `Cc1ccc(NS(=O)(=O)c2ccc(Cl)cc2)c(N=Cc2cc(Cl)cc(Cl)c2O)c1` ?
active

Hi, sorry to bother you, what did the test record for `Cc1ccc(NC(=O)c2ccccc2N=Cc2cc(Cl)cc(Cl)c2O)c(N=Cc2cc(Cl)cc(Cl)c2O)c1` ?
active

---

- protocol-summary: chemical genetic growth profiling, strain panel (AID 1159580);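 also: tested at 20 µM; growth read once vehicle control cultures reached saturation at 30 °C; 1 = growth at the plate median or of vehicle wells; lower values mean less growth of the strain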
- condition-info: S. cerevisiae deletion strains, growth OD, locus YPR141C, strain kar3
Among all 5,500 compounds or so, about 2,000 (36%) were called active. Roughly 18% stayed inconclusive and do not appear here. Cut-off read from the data, not from the text of the source: active = normalized growth mostly below about 0.91 (no sharp cut-off); inconclusive = no clear call, values can overlap the other calls; inactive = mostly above about 0.92. The list shows a part of the results.
Answer with one of the outcomes given here: yes (1) (active), no (0) (inactive)

Test call for this compound, please: `COc1cc([C@@H]2c3cc4c(c(O)c3C[C@H]3COC(=O)[C@@H]32)OCO4)cc(OC)c1OC`
no (0)

GET /call?item= C#CCCCCCCCCCCCC(=O)CC(O)COC(C)=O (configuration not stated) returns the recorded outcome of this test.
no (0)

State the result this test recorded for `CC(=O)OCC[C@H](C)CCC=C(C)C` .
no (0)

Which outcome did this test record for the compound `CC1(C)NC(=O)N(c2ccc([N+](=O)[O-])c(C(F)(F)F)c2)C1=O` ?
no (0)

For COc1ccc2c(c1O)OCC1c3cc4c(cc3OC21)OCO4 (configuration not stated) , which call appears in the assay record?
no (0)

What call does the record list for `Cc1cc(-c2ccccc2)nnc1NCCN1CCOCC1` ?
no (0)

Status in this test for C#CCCCCCCCCCCCC(O)CC(O)COC(C)=O (configuration not stated) ?
no (0)

Status in this test for NC(CO)C(=O)NNCc1ccc(O)c(O)c1O (configuration not stated) ?
no (0)

Check the results log: what was the call for `COc1ccc([C@H]2Oc3cc(OC)cc(OC)c3C[C@H]2O)cc1` ?
no (0)

Short answer needed: outcome of this test for `CC(C)C(=O)Nc1ccc([N+](=O)[O-])c(C(F)(F)F)c1` ?
no (0)

What classification did CCC(C)c1cnc(CC(C)C)c(=O)n1O (configuration not stated) end up with in this test?
yes (1)

Kindly provide the recorded test outcome for the following compound: O=C(C1CCCCC1)N1CC(=O)N2CCc3ccccc3C2C1 (configuration not stated)
no (0)
